tested on: VDR:RXRa (NR concentration 270 nM, RXRa partner concentration 90 nM); assay: PBM binding z-score (relative to random genomic background probes); higher = stronger binding; sequences stand for … in GC…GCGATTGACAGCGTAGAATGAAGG
// values below are reported PBM binding z-score
Answer with a number only.

Example cases with answers are listed next.
{"Construct Sequence": "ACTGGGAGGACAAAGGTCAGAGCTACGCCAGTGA", "Tested Target": "VDR:RXRa (NR concentration 270 nM, RXRa partner concentration 90 nM)", "Value": 3.73}
{"Construct Sequence": "CCTACTGGGCCAAAAAGGTCATTGACGCCGATAA", "Tested Target": "VDR:RXRa (NR concentration 270 nM, RXRa partner concentration 90 nM)", "Value": 4.36}
{"Construct Sequence": "CCCAGTAGGTTATGGGGCATTCAGGCAACGGTGA", "Tested Target": "VDR:RXRa (NR concentration 270 nM, RXRa partner concentration 90 nM)", "Value": 0.00537}

As a next step, examine the sequence that follows.
Q: Name the recorded PBM binding z-score of the sequence listed here: TCTCGGAGGACACGAAGGTCAGATCTTTCCAGAG
Result: 2.61

----------
test system: PPARg:RXRa 90nM:30nM, anti-RXR (NR concentration 90 nM, RXRa partner concentration 30 nM); test: PBM binding z-score (relative to random genomic background probes); higher = stronger binding; sequences stand for … in GC…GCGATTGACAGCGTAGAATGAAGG
Property Name: PBM binding z-score

Example cases with answers are listed next.
{"Construct Sequence": "TCATATAGGTAAAGGTGAAAATCGAACGATATGA", "PBM binding z-score": 4.59}
{"Construct Sequence": "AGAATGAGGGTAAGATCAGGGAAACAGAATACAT", "PBM binding z-score": 0.409}
{"Construct Sequence": "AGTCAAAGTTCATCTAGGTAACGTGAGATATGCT", "PBM binding z-score": 5.42}
{"Construct Sequence": "AGTCAAAGTGCACTAGGTAACGTAAGATTCAGCT", "PBM binding z-score": 1.89}

Q: Quote PPARg:RXRa 90nM:30nM, anti-RXR (NR concentration 90 nM, RXRa partner concentration 30 nM) PBM binding z-score for entry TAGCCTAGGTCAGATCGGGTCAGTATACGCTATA .
Result: 1.08

Q: Quote PPARg:RXRa 90nM:30nM, anti-RXR (NR concentration 90 nM, RXRa partner concentration 30 nM) PBM binding z-score for entry GATGCTAGGTCAGGTTGGTCAGCTAACGGGTACG .
Result: 0.0836

Q: Quote PPARg:RXRa 90nM:30nM, anti-RXR (NR concentration 90 nM, RXRa partner concentration 30 nM) PBM binding z-score for entry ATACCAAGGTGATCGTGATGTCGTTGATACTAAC .
Result: 0.0356

Q: Quote PPARg:RXRa 90nM:30nM, anti-RXR (NR concentration 90 nM, RXRa partner concentration 30 nM) PBM binding z-score for entry TAGCCTAGGTCATGCGGGCCAGAATAGTGTCGGC .
Result: 1.54

Q: Quote PPARg:RXRa 90nM:30nM, anti-RXR (NR concentration 90 nM, RXRa partner concentration 30 nM) PBM binding z-score for entry CTACCAAGGTGAACAAGGTCATTGATTACTATTC .
Result: 1.65

Q: Quote PPARg:RXRa 90nM:30nM, anti-RXR (NR concentration 90 nM, RXRa partner concentration 30 nM) PBM binding z-score for entry TCTAGCAGGCCAGAGGGTCACTCGAGAGGTACGG .
Result: 2.52

Q: Quote PPARg:RXRa 90nM:30nM, anti-RXR (NR concentration 90 nM, RXRa partner concentration 30 nM) PBM binding z-score for entry TGTTGTAGATCAATAGAGGTTAAGAAAGTGCGCT .
Result: 0.795

Q: Quote PPARg:RXRa 90nM:30nM, anti-RXR (NR concentration 90 nM, RXRa partner concentration 30 nM) PBM binding z-score for entry GAAGACAGGTGAAACGCAGGTAACTCAGGGTGGC .
Result: -0.0724

----------
tested on: RARg homodimer (NR concentration 270 nM); experiment: PBM binding z-score (relative to random genomic background probes); higher = stronger binding; sequences stand for … in GC…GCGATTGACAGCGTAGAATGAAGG
If the reported PBM binding z-score equals or exceeds 0.4, assign true. If not, assign false.

Sample answers from the record:
{"Construct Sequence": "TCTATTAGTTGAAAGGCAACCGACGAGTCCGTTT", "Tested Target": "RARg homodimer (NR concentration 270 nM)", "Class Label": "false"}
{"Construct Sequence": "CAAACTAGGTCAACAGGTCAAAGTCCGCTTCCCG", "Tested Target": "RARg homodimer (NR concentration 270 nM)", "Class Label": "true"}
{"Construct Sequence": "ATCTCTTGGTAACCAAGTTCAGTGAATGCCGAAC", "Tested Target": "RARg homodimer (NR concentration 270 nM)", "Class Label": "true"}
{"Construct Sequence": "CAAACTAGGTCAAGAGTTCAAAGTCCGCTTCCCG", "Tested Target": "RARg homodimer (NR concentration 270 nM)", "Class Label": "true"}

Q: Does CGTCAGAGTTCAACTAAGGTAACGTAAAGCACGC have a reported PBM binding z-score of at least 0.4?
Result: true

----------
// values below are reported PBM binding z-score
system: RXRa DBDmut IVT, anti-RXR (DBD mutation: RXRa K156A/R161A, NR concentration 90 nM); assay: PBM binding z-score (relative to random genomic background probes); higher = stronger binding; sequences stand for … in GC…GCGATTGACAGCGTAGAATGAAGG
Answer with a number only.

Example cases with answers are listed next.
{"Construct Sequence": "CCGAGTAGGTTATGGGGCTTTCAGGCAACGGTGA", "PBM binding z-score": -0.273}
{"Construct Sequence": "ACCGAAAGGTCGAAGGTGAGTATACCCACCCGAA", "PBM binding z-score": 1.35}
{"Construct Sequence": "CCTAGTTGGTCAGGAGGTCACGCACCGGATATGA", "PBM binding z-score": 0.815}
{"Construct Sequence": "TTACCAAGGTGAAGGTCGTTGACCCCTCTGTAGA", "PBM binding z-score": 0.133}
{"Construct Sequence": "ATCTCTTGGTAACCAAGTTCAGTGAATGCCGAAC", "PBM binding z-score": 1.2}

Q: Name the recorded PBM binding z-score of the sequence listed here: AGTCAAAGTTCATCTAGGAAACGTAAGATATGCT
Result: 4.79

Q: Name the recorded PBM binding z-score of the sequence listed here: TAGCCTAGGTCATTAGGCCAGTATAGTACGCATC
Result: 1.54

Q: Name the recorded PBM binding z-score of the sequence listed here: CGAACTAGATCAGAACAGGACAGTGAAGGATGAT
Result: 0.063

Q: Name the recorded PBM binding z-score of the sequence listed here: CGCCCAAGGTCATAGGAGGTCAGTGAAGACAGAT
Result: 3.41

Q: Name the recorded PBM binding z-score of the sequence listed here: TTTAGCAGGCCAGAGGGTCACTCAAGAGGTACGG
Result: -0.755

Q: Name the recorded PBM binding z-score of the sequence listed here: CTCGAAAGGTCGTTTGAGGTGAGTATACGGATAA
Result: 2.94

Q: Name the recorded PBM binding z-score of the sequence listed here: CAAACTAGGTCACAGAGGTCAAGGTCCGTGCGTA
Result: 2.61

Q: Name the recorded PBM binding z-score of the sequence listed here: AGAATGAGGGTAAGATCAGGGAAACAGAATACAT
Result: 0.212

Q: Name the recorded PBM binding z-score of the sequence listed here: CCTACTTGGTCAAGGTCACACACGCTATAGGTAC
Result: 2.17

Q: Name the recorded PBM binding z-score of the sequence listed here: ACAATGAGGTTACCAAAGATCAGGGAAACGCTTG
Result: 1.4

Q: Name the recorded PBM binding z-score of the sequence listed here: GCTAGTTGGTAAGTAAAAGGTCACACACCGGTCG
Result: 0.677

Q: Name the recorded PBM binding z-score of the sequence listed here: TGTAGTTGGTCAAAGGTCACACACTCGAAATGCG
Result: 1.24

Q: Name the recorded PBM binding z-score of the sequence listed here: CCTGCTAGGTCATGGTTAGCTAATCTACAGTATG
Result: 1.43

Q: Name the recorded PBM binding z-score of the sequence listed here: AGAATGAGGTTATACGTAGAACAGGGAAGAAAGT
Result: 1.5

Q: Name the recorded PBM binding z-score of the sequence listed here: CGAACTAGGTCAGAAGAGGACAGTGAAGGATGAT
Result: 0.392

Q: Name the recorded PBM binding z-score of the sequence listed here: CCTTACGGGTCACGAGGTTTTAGCACGACGAGCG
Result: 1.57
